# experiment-notes: Toxicity liver stage against HepG2, at 10uM
# Format: cell-based
# Parameters: test concentration 10 uM, cell line HepG2-A16-CD81EGFP
# measurement-conditions: human, HepG2-A16-CD81EGFP cells; read-out: INHIBITION
outcome-measure: cytotoxicity at 10 µM (%)
Write the answer as a number in %, unit excluded.

compound: Fc1ccc(CN2CCCC2Cn2cncn2)c2ncccc12 (stereo not given)
outcome-measure: cytotoxicity at 10 µM
value-reported: 11.7
//
compound: COc1ccc(C(=O)N2C[C@@H]3CC[C@H]2CN(C)C3)cc1Cl
outcome-measure: cytotoxicity at 10 µM
value-reported: 5.79
//
compound: Cc1nn2c(N3CCC(O)CC3)cc(-c3ccccc3)nc2c1C
outcome-measure: cytotoxicity at 10 µM
value-reported: -6.54
//
compound: CCC(CO)N(Cc1cccnc1)C(=O)c1ccncc1F (stereo not given)
outcome-measure: cytotoxicity at 10 µM
value-reported: 2.59
//
compound: Oc1ccc(-c2c(-c3ccccc3)ncn2C2CCNC2)cc1 (stereo not given)
outcome-measure: cytotoxicity at 10 µM
value-reported: -45.3

Can you look up the measured cytotoxicity at 10 µM of `N[C@H]1CN(S(=O)(=O)c2cccnc2)C[C@@H]1C1CC1` for me?
7.28

Form field: reported cytotoxicity at 10 µM of COCC(=O)N1CCCC(c2cccc(-n3ccnc3)n2)C1 (stereo not given)
-9.69

Would you mind telling me what cytotoxicity at 10 µM value was observed for `Cc1cnc(CNc2ccc(C(=O)NCc3ccco3)cc2C)o1` ?
-4.51

Query (compound): `COC(=O)c1ncccc1N1CCCCC1` ; field requested: cytotoxicity at 10 µM
-8.77

* * *

# experiment-notes: Toxicity liver stage against HepG2, at 10uM
# Assay type: cell-based
# Parameters: test concentration 10 uM, cell line HepG2-A16-CD81EGFP
# measurement-conditions: human, HepG2-A16-CD81EGFP cells; read-out: INHIBITION
outcome-measure: cytotoxicity at 10 µM (%)
# value in %; strip the unit string

compound: O=C(NCC(F)(F)F)C(c1cccnc1)N1CCOCC1 (configuration not stated)
value-unit: %
value-reported: 1.51

compound: Cc1ncsc1CN1CCn2c(COc3cccnc3)cnc2C1C (configuration not stated)
value-unit: %
value-reported: 9.16

compound: O=C(c1cccnc1O)N(Cc1cccs1)CC1CCCO1 (configuration not stated)
value-unit: %
value-reported: -11.5

compound: CCOc1nc2cnccc2n(CC(=O)Nc2ccccc2OC)c1=O
value-unit: %
value-reported: -15

compound: COc1ccc(C2CC(=O)Nc3c2nc2n3CCCC2)cc1O (configuration not stated)
value-unit: %
value-reported: -2.53

compound: c1ccc(CN2CCO[C@H]3[C@H](OCCN4CCCC4)CC[C@@H]32)nc1
value-unit: %
value-reported: -1.5

compound: Cn1ccc(CN2CCC3(CCCN3CC3CC3)CC2)n1
value-unit: %
value-reported: -92.4

compound: CC(C)c1cc(N2CCSCC2)n2nccc2n1
value-unit: %
value-reported: 4.66

# query: cytotoxicity at 10 µM of entry `CCN1C[C@@H]2[C@@H](OC)CCN(C(=O)Cc3ccsc3)[C@@H]2C1`
0.11

Entry Cc1cc(C2CCCN2Cc2nc(-c3ccco3)no2)on1 (configuration not stated) has what cytotoxicity at 10 µM?
7.53

Tell me the measured cytotoxicity at 10 µM of CNC(=O)CCc1cc(C2CCCCN2C)nc(C)n1 (configuration not stated) , please.
-0.956

Value lookup for cytotoxicity at 10 µM; key = CCC(Sc1ncc(CO)n1C)c1ccccc1 (configuration not stated)
-45.3

* * *

Known cytotoxicity at 10 µM of a selection of compounds
# experiment-notes: Toxicity liver stage against HepG2, at 10uM
# Format: cell-based
# Design: test concentration 10 uM, cell line HepG2-A16-CD81EGFP
# measurement-conditions: human, HepG2-A16-CD81EGFP cells; read-out: INHIBITION
All answers are understood in %, so give the number only.

Reference set (5 entries):
compound: O=C(NCC1CCOCC1)c1cc(-c2cccnc2)c2cnccc2n1
value-unit: %
cytotoxicity at 10 µM: 13.2
--
compound: COCc1ccc(C(=O)N2CCOCC2c2ccc(C)o2)cc1 (stereo not drawn)
value-unit: %
cytotoxicity at 10 µM: -5.48
--
compound: CC(C)c1nnc(CN2CCCC2Cn2cncn2)o1 (stereo not drawn)
value-unit: %
cytotoxicity at 10 µM: -11.1
--
compound: Cn1cccc1CNC(=O)CCCc1nnc2ccccn12
value-unit: %
cytotoxicity at 10 µM: -5.77
--
compound: CN(CCCc1cc(-c2cccc(F)c2)n[nH]1)C(=O)Cn1cncn1
value-unit: %
cytotoxicity at 10 µM: -129

Requested field: cytotoxicity at 10 µM. Item: O=C(C1CC2(CCNCC2)CN1)N1CCN(c2ccccc2)CC1 (stereo not drawn)
-8.6

Please report the recorded cytotoxicity at 10 µM for `Cc1cc(N(C)Cc2cc(C(C)(C)C)n[nH]2)nc(-c2cccnc2)n1` .
19.9

* * *

This listing pairs molecules with measured cytotoxicity at 10 µM.
# experiment-notes: Toxicity liver stage against HepG2, at 10uM
# Format: cell-based
# Set-up: test concentration 10 uM, cell line HepG2-A16-CD81EGFP
# measurement-conditions: human, HepG2-A16-CD81EGFP cells; read-out: INHIBITION
A number alone suffices; assume %.

Use these answered entries as a reference point.
molecule: CN(Cc1cnccn1)C(=O)c1ccnc(OC2CCC2)c1
cytotoxicity at 10 µM / %: 0.0711

molecule: Cc1nc2c(Nc3cccc(C#N)c3)nc(N)nc2n1C
cytotoxicity at 10 µM / %: -1.87

molecule: CCCN(CC(F)F)c1cc(COC)nc2ncnn12
cytotoxicity at 10 µM / %: -3.22

molecule: CC(C)c1cnc(CN2CCCC(c3cc(C(N)=O)[nH]n3)C2)o1 (configuration not stated)
cytotoxicity at 10 µM / %: -13.5

molecule: CN(C)CCN1CCN(Cc2nccs2)Cc2cccnc21
cytotoxicity at 10 µM / %: -1.08

May I ask what cytotoxicity at 10 µM has been recorded for `CCCN(CC)c1cc(C2CCNCC2)nc(C)n1` ?
-7.33

Need cytotoxicity at 10 µM, item `Cc1nccn1[C@@H]1CC[C@@H](NC(=O)CCCn2cncn2)[C@H]1O`
6.17

I'd like to know its cytotoxicity at 10 µM. The molecule in question is `c1cncc(CN2CCO[C@@H]3CN(Cc4ccoc4)CC[C@@H]3C2)c1`
-70.9

// lookup cytotoxicity at 10 µM for c1ncn(CC2CCCN(Cc3nc(C4CC4)no3)C2)n1 (configuration not stated)
-12.9

* * *

# experiment-notes: Toxicity liver stage against HepG2, at 10uM
# Assay type: cell-based
# Parameters: test concentration 10 uM, cell line HepG2-A16-CD81EGFP
# measurement-conditions: human, HepG2-A16-CD81EGFP cells; read-out: INHIBITION
outcome-measure: cytotoxicity at 10 µM (%)
The reply should contain only the number, in %.

compound: O=C1NCCCC12CCN(S(=O)(=O)N1CCOCC1)C2 (configuration not stated)
value-unit: %
value-reported: -1.16
--
compound: O=C(CCn1cc(Cl)cn1)N1CCCC(O)(CO)CC1 (configuration not stated)
value-unit: %
value-reported: -145
--
compound: Cc1nnc(N2CC[C@H]3C[C@@H](C(=O)N4CCCC4)O[C@H]3C2)s1
value-unit: %
value-reported: -70.6
--
compound: CCCc1n[nH]c(C2CN(CCNS(=O)(=O)CC)CCO2)n1 (configuration not stated)
value-unit: %
value-reported: 2.43
--
compound: O=C(CCCN1CCCCC1)N1CCC(c2nnc[nH]2)CC1
value-unit: %
value-reported: -7.92

Query (compound): Cc1ccc(CN2CCCC3(CCCC(=O)N3C)C2)s1 (configuration not stated) ; field requested: cytotoxicity at 10 µM
-110

Fill in the blank: the reported cytotoxicity at 10 µM of CCC(=O)NC(C)c1ccccc1C (configuration not stated) is ____.
0.245

I would be grateful if you could share the reported cytotoxicity at 10 µM for `FC(F)(F)c1csc(N2CCN(Cc3ccccn3)CC2)n1` .
4.25

Param item = `CC(C)N1CCC2(CCN(C(=O)c3cccnc3)CC2)C1` ; retrieve measured cytotoxicity at 10 µM.
5.27

Look up cytotoxicity at 10 µM for this compound: `NC(=O)NC(=O)CN1CCN(c2nccs2)CC1`
-17.9

Value lookup for cytotoxicity at 10 µM; key = `CCCn1cc(-c2cc(-c3ccoc3)c(C#N)c(N)n2)c(C)n1`
5.48

Given the compound `CCc1cc(NC2CCN(S(C)(=O)=O)CC2)n2nc(C)c(C)c2n1` , what is its reported cytotoxicity at 10 µM?
-12.2

* * *

# experiment-notes: Toxicity liver stage against HepG2, at 10uM
# Assay type: cell-based
# Set-up: test concentration 10 uM, cell line HepG2-A16-CD81EGFP
# measurement-conditions: human, HepG2-A16-CD81EGFP cells; read-out: INHIBITION
outcome-measure: cytotoxicity at 10 µM (%)
Answer in %, number only, no unit symbol.

compound: CC(=O)N1CC[C@H]2NC(=O)N(Cc3ccccc3)C(=O)[C@H]21
cytotoxicity at 10 µM, %: 4.47

compound: O=C(NCCC1CN(C2CCCC2)CCO1)c1cc(=O)[nH]c(=O)[nH]1 (centres undefined)
cytotoxicity at 10 µM, %: 0.0145

compound: CCN(Cc1ccc2c(c1)OCCO2)C(=O)NCCc1cnn(C)c1
cytotoxicity at 10 µM, %: -3.72

compound: COc1ccc(-c2cc(N)ccn2)c(OC)c1OC
cytotoxicity at 10 µM, %: 11.4

compound: CC(=O)N1CCN([C@@H]2CC[C@@H](NC(=O)c3cncc(C)c3)[C@H]2O)CC1
cytotoxicity at 10 µM, %: 2.6

compound: c1cnc(NCc2noc3c2CN(c2cnccn2)CC3)nc1
cytotoxicity at 10 µM, %: 0.774

Fill blank: measured cytotoxicity at 10 µM of the compound Cc1nc(CN2CCOC3(CCCN(c4nccs4)C3)C2)cs1 (centres undefined) is ____.
16.3

Which cytotoxicity at 10 µM reading was recorded for the compound `CN[C@@H](CO)C(=O)NCc1cc2n(n1)CCCN(C1CCCCC1)C2` ?
-3.14

Tell me the measured cytotoxicity at 10 µM of `Cc1noc(C)c1CNc1cccc(C(=O)N(C)c2ccccc2)c1` , please.
17.5

GET /values?readout=cytotoxicity at 10 µM&item= `Cn1cccc1C(=O)N1CC[C@H]2[C@@H]1CCC(=O)N2c1ccccc1`
-6.53

Quick one: cytotoxicity at 10 µM of `COc1ccc(CC(=O)N2CCC(c3nncn3C)CC2)cc1F` ?
2.01
